Experiment: Cytotoxicity against human SF188 cells after 24 hrs
Type: cell-based
Details: SF-188, 24 h
pIC50: −log10 of the molar value.
OBSERVABLE: pIC50

- CC(C)=CCC[C@](C)(O)[C@H]1CC[C@]2(C)[C@@H]1[C@H](O)C[C@@H]1[C@@]3(C)CC[C@H](O)C(C)(C)[C@@H]3CC[C@]12C: 4.62
